- Tested on: Staphylococcus aureus
- measurement description: Antimicrobial activity against Methicillin-resistant Staphylococcus aureus assessed as bacterial growth inhibition
- Assay type: functional
observed property: MIC (µg/mL)

INSERT INTO assay_data (given_smiles, assay_result) VALUES
  ('CCCCn1ncc2c3c(C#N)c4ccccc4nc3ccc21', 2),
  ('CCn1ncc2c3c(C#N)c4ccc(Br)cc4nc3ccc21', 2),
  ('Cn1ncc2c3c(C#N)c4ccc(Br)cc4nc3ccc21', 2);
